Tested on: RXF 393
test-description: NCI tumour cell line growth inhibition, 48 h
Active and inactive are the calls of the source. No stated cut-off is given here; in the data, active = GI50 up to about 1.1 µM and inactive = higher.
Your reply should match one of these outcome classes. active, inactive

Example cases with answers are listed next.
* CCCCSC1=N/C(=C\c2ccco2)C(Cl)=N1 | inactive
* O=P1(O)c2ccccc2CCc2ccccc21 | inactive
* COc1ccc(/C=N/Nc2nc(=S)[nH]c3[nH]ncc23)cc1 | inactive
* CC(C)=CCN=C(N)N | inactive
* CCC(=O)N1C(=O)C(CC)(CC)C(=O)N1C(=O)CC | inactive
* CCOC(=O)C1=C(C)N(Cc2ccc(Cl)cc2Cl)C2(O)C(OC)CC(=O)C3C(=O)N(c4ccccc4)C(=O)C132 (stereo unspecified) | active

Problem: Give the logged outcome of this assay for the following compound: S=c1sc2c(s1)SC(c1ccccc1)CS2 (stereo unspecified)
Result: inactive

Problem: Give the logged outcome of this assay for the following compound: Cc1ccc(NC(=O)CC(=O)N2N=C(N(c3ccccc3)c3ccccc3)CC2c2ccccc2)cc1 (stereo unspecified)
Result: inactive

Problem: Give the logged outcome of this assay for the following compound: C#CCN(C(=O)C(F)(F)F)C(/C=C\C(=O)OC)(C(=O)OCC)C(=O)OCC
Result: inactive

Problem: Give the logged outcome of this assay for the following compound: COc1ccc2c(c1OC)C(=O)N/C2=C\c1c(CCN(C)C)cc2c(c1OC)OCO2
Result: inactive

Problem: Give the logged outcome of this assay for the following compound: COC(=O)c1cc(C#N)[nH]c1-c1cccs1
Result: inactive

Hello, the source for this data is ChEMBL document CHEMBL1201862, in case you need it.
